- System: SEM cells
- test_summary: AUC of viability dose-response curve (% viability x log10 dose units); higher = less sensitive
- condition: RPMI 5 mM glucose + 10% FBS; 48 h
Consider the following molecules and their measured AUC of viability dose-response curve readings.
measurement_type: AUC of viability dose-response curve

[[record]]
molecule = "Cc1c(OCC(F)(F)F)ccnc1C[S+]([O-])c1nc2ccccc2[nH]1 (stereo not drawn)"
measurement_type = "AUC of viability dose-response curve"
recorded_measurement = 475

[[record]]
molecule = "Cc1nc2c([nH]1)-c1ccccc1N(C(=O)c1ccc(NC(=O)c3ccccc3-c3ccccc3)cc1)CC2"
measurement_type = "AUC of viability dose-response curve"
recorded_measurement = 457

[[record]]
molecule = "COC1=CC=C(C=C1)C/2=C/OC3=CC(=CC=C3C2=O)O"
measurement_type = "AUC of viability dose-response curve"
recorded_measurement = 458


The origin of these recorded values is the supplement of paper PMC11451515.
